// provenance: ChEMBL document CHEMBL2040803

Tested on: Mus musculus
testDescription: Anticonvulsant activity in Kunming mouse assessed as protection against maximal electroshock-induced seizures at 300 mg/kg, ip measured after 0.5 hr
Assay type: functional, organism-based
Design: dose 300 mg/kg
The source made the active and inactive calls. The rule behind the calls is not given here.
Outcome codes: TRUE = active, FALSE = inactive

# compound, qualitativeLabel
measured = [
    ("CCOC(=O)C1(NC(=O)NNC(=O)c2ccccc2Br)CC1(C)C (stereo unspecified)", "TRUE"),
    ("CCOC(=O)C1(NC(=O)NNC(=O)c2cccs2)CC1(C)C (stereo unspecified)", "FALSE"),
    ("CCOC(=O)C1(NC(=O)NNC(=O)c2ccc(N(C)C)cc2)CC1(C)C (stereo unspecified)", "TRUE"),
    ("CCOC(=O)C1(NC(=O)NNC(=O)c2ccc(OC)c(OC)c2)CC1(C)C (stereo unspecified)", "TRUE"),
    ("CCOC(=O)C1(NC(=O)NNC(=O)c2cc(OC)c(OC)c(OC)c2)CC1(C)C (stereo unspecified)", "TRUE"),
    ("CCC1(C)CC(=O)NC1=O (stereo unspecified) [ETHOSUXIMIDE]", "FALSE"),
]

---

System: Mus musculus
testDescription: Neurotoxicity in Kunming mouse at 300 mg/kg, ip after 0.5 hr by rotorod test
Format: toxicity, organism-based
Design: dose 300 mg/kg, route intraperitoneal
particulars: in vivo

# molecule, testedSystem, Activity
data = [
    ("CCOC(=O)C1(NC(=O)NNC(=O)c2ccccc2C)CC1(C)C (stereo not given)", "Mus musculus", "Non-toxic"),
    ("CCOC(=O)C1(NC(=O)NNC(=O)c2ccc(OC)c(OC)c2)CC1(C)C (stereo not given)", "Mus musculus", "Non-toxic"),
    ("CCOC(=O)C1(NC(=O)NNC(=O)c2ccc(Br)cc2)CC1(C)C (stereo not given)", "Mus musculus", "Non-toxic"),
    ("CCOC(=O)C1(NC(=O)NNC(=O)c2ccc(C(F)(F)F)cc2)CC1(C)C (stereo not given)", "Mus musculus", "Non-toxic"),
    ("CCOC(=O)C1(NC(=O)NNC(=O)c2ccccc2Cl)CC1(C)C (stereo not given)", "Mus musculus", "Non-toxic"),
    ("CCOC(=O)C1(NC(=O)NNC(=O)c2ccc([N+](=O)[O-])cc2)CC1(C)C (stereo not given)", "Mus musculus", "Non-toxic"),
    ("CCOC(=O)C1(NC(=O)NNC(=O)c2ccc(F)cc2)CC1(C)C (stereo not given)", "Mus musculus", "Non-toxic"),
    ("CCOC(=O)C1(NC(=O)NNC(=O)c2ccc(C(C)(C)C)cc2)CC1(C)C (stereo not given)", "Mus musculus", "Non-toxic"),
    ("CCOC(=O)C1(NC(=O)NNC(=O)c2cc(OC)c(OC)c(OC)c2)CC1(C)C (stereo not given)", "Mus musculus", "Toxic"),
    ("CCOC(=O)C1(NC(=O)NNC(=O)c2ccc(C)cc2)CC1(C)C (stereo not given)", "Mus musculus", "Non-toxic"),
    ("CCOC(=O)C1(NC(=O)NNC(=O)c2ccc(CC)cc2)CC1(C)C (stereo not given)", "Mus musculus", "Non-toxic"),
    ("CCC1(C)CC(=O)NC1=O (stereo not given) [ETHOSUXIMIDE]", "Mus musculus", "Non-toxic"),
    ("CCOC(=O)C1(NC(=O)NNC(=O)c2cccc(C)c2)CC1(C)C (stereo not given)", "Mus musculus", "Non-toxic"),
    ("CCOC(=O)C1(NC(=O)NNC(=O)c2ccccc2F)CC1(C)C (stereo not given)", "Mus musculus", "Non-toxic"),
    ("CCOC(=O)C1(NC(=O)NNC(=O)c2ccc(Cl)cc2)CC1(C)C (stereo not given)", "Mus musculus", "Non-toxic"),
    ("CCOC(=O)C1(NC(=O)NNC(=O)c2ccc(OC)cc2)CC1(C)C (stereo not given)", "Mus musculus", "Non-toxic"),
    ("CCOC(=O)C1(NC(=O)NNC(=O)c2ccccc2Br)CC1(C)C (stereo not given)", "Mus musculus", "Non-toxic"),
    ("CCOC(=O)C1(NC(=O)NNC(=O)c2ccccc2)CC1(C)C (stereo not given)", "Mus musculus", "Toxic"),
    ("CCOC(=O)C1(NC(=O)NN2C(=O)c3ccccc3C2=O)CC1(C)C (stereo not given)", "Mus musculus", "Non-toxic"),
    ("CCOC(=O)C1(NC(=O)NNC(=O)c2ccc(N(C)C)cc2)CC1(C)C (stereo not given)", "Mus musculus", "Non-toxic"),
]

---

Tested on: Mus musculus
testDescription: Neurotoxicity in Kunming mouse at 300 mg/kg, ip after 4 hrs by rotorod test
Format: toxicity, organism-based
Set-up: dose 300 mg/kg, route intraperitoneal
particulars: in vivo
measure: Activity

# compound, obsValue
rows = [
    ("CCOC(=O)C1(NC(=O)NNC(=O)c2cc(OC)c(OC)c(OC)c2)CC1(C)C (centres undefined)", "Non-toxic"),
    ("CCOC(=O)C1(NC(=O)NNC(=O)c2ccccc2)CC1(C)C (centres undefined)", "Non-toxic"),
    ("CCOC(=O)C1(NC(=O)NNC(=O)c2ccc([N+](=O)[O-])cc2)CC1(C)C (centres undefined)", "Toxic"),
    ("CCOC(=O)C1(NC(=O)NN2C(=O)c3ccccc3C2=O)CC1(C)C (centres undefined)", "Non-toxic"),
    ("CCOC(=O)C1(NC(=O)NNC(=O)c2ccccc2Br)CC1(C)C (centres undefined)", "Non-toxic"),
    ("CCOC(=O)C1(NC(=O)NNC(=O)c2ccc(C(C)(C)C)cc2)CC1(C)C (centres undefined)", "Toxic"),
    ("CCOC(=O)C1(NC(=O)NNC(=O)c2ccc(CC)cc2)CC1(C)C (centres undefined)", "Non-toxic"),
    ("CCOC(=O)C1(NC(=O)NNC(=O)c2ccc(F)cc2)CC1(C)C (centres undefined)", "Non-toxic"),
    ("CCOC(=O)C1(NC(=O)NNC(=O)c2ccncc2)CC1(C)C (centres undefined)", "Toxic"),
    ("CCOC(=O)C1(NC(=O)NNC(=O)c2cccc(C)c2)CC1(C)C (centres undefined)", "Non-toxic"),
    ("CCOC(=O)C1(NC(=O)NNC(=O)c2ccc(OC)c(OC)c2)CC1(C)C (centres undefined)", "Toxic"),
    ("CCOC(=O)C1(NC(=O)NNC(=O)c2cccs2)CC1(C)C (centres undefined)", "Toxic"),
    ("CCOC(=O)C1(NC(=O)NNC(=O)c2ccco2)CC1(C)C (centres undefined)", "Toxic"),
    ("CCOC(=O)C1(NC(=O)NNC(=O)c2ccccc2C)CC1(C)C (centres undefined)", "Non-toxic"),
    ("CCOC(=O)C1(NC(=O)NNC(=O)c2ccc(OC)cc2)CC1(C)C (centres undefined)", "Non-toxic"),
    ("CCOC(=O)C1(NC(=O)NNC(=O)c2ccc(C(F)(F)F)cc2)CC1(C)C (centres undefined)", "Non-toxic"),
    ("CCOC(=O)C1(NC(=O)NNC(=O)c2ccccc2F)CC1(C)C (centres undefined)", "Toxic"),
    ("CCOC(=O)C1(NC(=O)NNC(=O)c2cccnc2)CC1(C)C (centres undefined)", "Toxic"),
    ("CCOC(=O)C1(NC(=O)NNC(=O)c2ccccc2Cl)CC1(C)C (centres undefined)", "Toxic"),
    ("CCOC(=O)C1(NC(=O)NNC(=O)c2ccc(Cl)cc2)CC1(C)C (centres undefined)", "Toxic"),
    ("CCC1(C)CC(=O)NC1=O (centres undefined) [ETHOSUXIMIDE]", "Non-toxic"),
    ("CCOC(=O)C1(NC(=O)NNC(=O)c2ccc(Br)cc2)CC1(C)C (centres undefined)", "Toxic"),
    ("CCOC(=O)C1(NC(=O)NNC(=O)c2ccc(C)cc2)CC1(C)C (centres undefined)", "Toxic"),
    ("CCOC(=O)C1(NC(=O)NNC(=O)c2ccc(N(C)C)cc2)CC1(C)C (centres undefined)", "Toxic"),
]

---

Tested on: Mus musculus
testDescription: Anticonvulsant activity in Kunming mouse assessed as protection against subcutaneous pentylenetetrazol-induced clonic seizures at 300 mg/kg, ip measured after 0.5 hrs
Format: functional, organism-based
Design: dose 300 mg/kg
Active and inactive are the calls of the source. The calls are words filed in the database; no cut-off is given here.
Outcome codes: active, inactive

# compound, testedSystem, qualitativeLabel
records = [
    ("CCOC(=O)C1(NC(=O)NNC(=O)c2ccc(OC)c(OC)c2)CC1(C)C (stereo unspecified)", "Mus musculus", "inactive"),
    ("CCOC(=O)C1(NC(=O)NNC(=O)c2cccnc2)CC1(C)C (stereo unspecified)", "Mus musculus", "inactive"),
    ("CCOC(=O)C1(NC(=O)NNC(=O)c2ccc(N(C)C)cc2)CC1(C)C (stereo unspecified)", "Mus musculus", "inactive"),
    ("CCOC(=O)C1(NC(=O)NNC(=O)c2ccc(Cl)cc2)CC1(C)C (stereo unspecified)", "Mus musculus", "inactive"),
    ("CCOC(=O)C1(NC(=O)NNC(=O)c2cccc(C)c2)CC1(C)C (stereo unspecified)", "Mus musculus", "inactive"),
    ("CCOC(=O)C1(NC(=O)NNC(=O)c2cccs2)CC1(C)C (stereo unspecified)", "Mus musculus", "active"),
    ("CCOC(=O)C1(NC(=O)NNC(=O)c2ccc(CC)cc2)CC1(C)C (stereo unspecified)", "Mus musculus", "active"),
    ("CCOC(=O)C1(NC(=O)NNC(=O)c2ccncc2)CC1(C)C (stereo unspecified)", "Mus musculus", "inactive"),
    ("CCOC(=O)C1(NC(=O)NNC(=O)c2ccccc2Cl)CC1(C)C (stereo unspecified)", "Mus musculus", "active"),
    ("CCOC(=O)C1(NC(=O)NNC(=O)c2cc(OC)c(OC)c(OC)c2)CC1(C)C (stereo unspecified)", "Mus musculus", "inactive"),
    ("CCOC(=O)C1(NC(=O)NNC(=O)c2ccco2)CC1(C)C (stereo unspecified)", "Mus musculus", "inactive"),
]
